Data credit: ChEMBL document CHEMBL5291721

// values below are reported AC50
- system: UniProt:P06401
- Sequence (P06401 whole entry): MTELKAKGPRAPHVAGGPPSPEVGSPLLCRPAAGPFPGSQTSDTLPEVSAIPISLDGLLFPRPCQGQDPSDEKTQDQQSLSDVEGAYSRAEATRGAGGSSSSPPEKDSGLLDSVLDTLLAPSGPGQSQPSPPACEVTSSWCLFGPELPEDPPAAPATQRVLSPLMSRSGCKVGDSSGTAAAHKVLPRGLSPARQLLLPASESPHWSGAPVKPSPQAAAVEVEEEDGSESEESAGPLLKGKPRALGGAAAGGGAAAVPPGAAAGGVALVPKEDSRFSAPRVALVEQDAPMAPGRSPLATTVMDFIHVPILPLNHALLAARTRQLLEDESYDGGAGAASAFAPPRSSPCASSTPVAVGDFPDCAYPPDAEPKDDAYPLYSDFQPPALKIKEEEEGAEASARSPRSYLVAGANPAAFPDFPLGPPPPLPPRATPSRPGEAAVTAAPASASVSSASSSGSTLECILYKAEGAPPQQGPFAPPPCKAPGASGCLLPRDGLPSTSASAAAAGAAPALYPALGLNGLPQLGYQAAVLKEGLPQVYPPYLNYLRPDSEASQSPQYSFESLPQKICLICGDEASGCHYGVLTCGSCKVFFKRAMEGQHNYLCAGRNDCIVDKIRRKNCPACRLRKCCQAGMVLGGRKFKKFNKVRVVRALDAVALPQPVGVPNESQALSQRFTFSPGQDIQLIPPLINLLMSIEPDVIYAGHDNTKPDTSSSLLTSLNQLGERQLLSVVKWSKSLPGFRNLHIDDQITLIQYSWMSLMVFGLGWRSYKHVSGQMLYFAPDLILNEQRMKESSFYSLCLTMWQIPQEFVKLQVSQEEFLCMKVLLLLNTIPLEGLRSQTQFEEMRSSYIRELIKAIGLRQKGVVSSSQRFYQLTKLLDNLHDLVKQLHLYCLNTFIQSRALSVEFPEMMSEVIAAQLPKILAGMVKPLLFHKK
- Type: functional

Here is how some compounds turned out for AC50.
{"columns": ["compound", "system", "measured"],
 "data": [
  ["CCOC(=O)OC(C)OC1=C(C(=O)Nc2ccccn2)N(C)S(=O)(=O)c2ccccc21 (configuration not stated) [AMPIROXICAM]", "UniProt:P06401", "> 30 µM"],
  ["C[C@@H]1O[C@@H](O[C@@H]2C=C3CC[C@@H]4[C@H](CC[C@]5(C)[C@@H](c6ccc(=O)oc6)CC[C@]45O)[C@@]3(C)CC2)[C@H](O)[C@H](O)[C@H]1O [PROSCILLARIDIN]", "UniProt:P06401", "> 30 µM"],
  ["Nc1nc(/C(=C/CC(=O)O)C(=O)N[C@@H]2C(=O)N3C(C(=O)O)=CCS[C@H]23)cs1 [CEFTIBUTEN]", "UniProt:P06401", "> 30 µM"],
  ["C[C@]12CC[C@H]3[C@@H](CCC4=CC(=O)CC[C@@]43C)[C@@H]1CC[C@@H]2O [TESTOSTERONE]", "UniProt:P06401", "0.092 µM"],
  ["C[N+]1(C)CCC(OC(=O)C(O)(c2ccccc2)C2CCCC2)C1 (configuration not stated) [GLYCOPYRRONIUM BROMIDE]", "UniProt:P06401", "> 10 µM"],
  ["CCCN(CCC)C(=O)C(CCC(=O)O)NC(=O)c1ccccc1 (configuration not stated) [PROGLUMIDE]", "UniProt:P06401", "> 30 µM"]
]}

From here, focus on the item given below.
(Q) Given the compound Cn1c(=O)c2c(ncn2CC2OCCO2)n(C)c1=O [DOXOFYLLINE] , what is its reported AC50?
(A) > 30 µM

###

- system: Histamine H2 receptor (Homo sapiens, UniProt P25021); note: assay procedure not described here
- Sequence (P25021 whole entry): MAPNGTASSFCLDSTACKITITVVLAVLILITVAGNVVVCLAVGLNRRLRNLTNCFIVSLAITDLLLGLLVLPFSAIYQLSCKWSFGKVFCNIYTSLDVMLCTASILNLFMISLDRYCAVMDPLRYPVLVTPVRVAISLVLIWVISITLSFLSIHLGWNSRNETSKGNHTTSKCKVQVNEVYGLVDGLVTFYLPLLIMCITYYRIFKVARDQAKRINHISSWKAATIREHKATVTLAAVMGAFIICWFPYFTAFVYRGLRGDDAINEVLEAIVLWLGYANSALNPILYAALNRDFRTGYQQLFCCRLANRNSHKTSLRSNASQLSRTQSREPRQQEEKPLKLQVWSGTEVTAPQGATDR
- Assay type: functional, cell-based
Collected AC50 values appear next to each entry.

{"columns": ["molecule", "AC50"],
 "data": [
  ["NCC[C@H](O)C(=O)N[C@@H]1C[C@H](N)[C@@H](O[C@H]2O[C@H](CN)[C@@H](O)[C@H](O)[C@H]2O)[C@H](O)[C@H]1O[C@H]1O[C@H](CO)[C@@H](O)[C@H](N)[C@H]1O", "> 10 µM"],
  ["C[C@H]1COc2c(C3(N)CC3)c(F)cc3c(=O)c(C(=O)O)cn1c23", "> 10 µM"],
  ["O=P1(NCCCl)OCCCN1CCCl (centres undefined) [IFOSFAMIDE]", "> 30 µM"],
  ["CCCCCCOc1ccccc1C(N)=O [EXALAMIDE]", "> 30 µM"],
  ["C#C[C@]1(O)CC[C@H]2[C@@H]3[C@H](C)CC4=C(CCC(=O)C4)[C@H]3CC[C@@]21C", "> 30 µM"],
  ["COc1ccc2c3c1O[C@H]1[C@@H](O)CC[C@H]4[C@@H](C2)N(C)CC[C@@]341 [DIHYDROCODEINE]", "> 30 µM"]
]}

(Q) Look up AC50: C[C@]12CCC(=O)C=C1CC[C@@H]1[C@@H]2[C@@H](O)C[C@@]2(C)[C@H]1CC[C@]2(O)C(=O)CO [HYDROCORTISONE]
(A) > 10 µM

(Q) Would you kindly repeat that for CCN(CC)C(=O)N[C@H]1C[C@@H]2c3cccc4[nH]cc(c34)C[C@H]2N(C)C1 [TERGURIDE] ?
(A) 15 µM

(Q) Same lookup for O=C(NCCNCC(O)COc1ccc(O)cc1)N1CCOCC1 (centres undefined) , please.
(A) > 30 µM

(Q) And the next one, COc1ccc(CCNCC(O)COc2cccc(C)c2)cc1OC (centres undefined) ?
(A) > 30 µM

(Q) Then this molecule: CC(C)Cn1cnc2c(N)nc3ccccc3c21
(A) > 10 µM

(Q) Now give it for COC(=O)C1=C(C)NC(C)=C(C(=O)OC(C)(C)CN(C)CCC(c2ccccc2)c2ccccc2)C1c1cccc([N+](=O)[O-])c1 (centres undefined) too.
(A) > 30 µM
